# Tested on: Streptococcus pyogenes SSI-9
# experimentNotes: Antibacterial activity assay of bead-derived peptides (three concentrations)
# Type: cell-based
# Parameters: key: +++: inhibition by the 640-fold diluted peptide solution; ++: inhibition by the 160-fold diluted solution; +: inhibition by the 40-fold diluted solution; -: no inhibition
# experimentalContext: S. pyogenes, bead-derived peptide solution, three concentrations
Where a SMILES comes first, the peptide text is derived from it. [ ]: non-standard residue; d: D form. The star is where a group is joined. NHCH2CH2OH = OCCN*; For = O=C*
assayEndpoint: antibacterial activity

1. CC(C)C[C@@H](NC(=O)[C@H](C)NC(=O)CNC(=O)[C@@H](NC=O)C(C)C)C(=O)N[C@@H](C)C(=O)N[C@@H](C(=O)N[C@H](C(=O)N[C@@H](C(=O)N[C@@H](Cc1c[nH]c2ccccc12)C(=O)N[C@@H](C(=O)N[C@@H](Cc1c[nH]c2ccccc12)C(=O)N[C@H](CC(C)C)C(=O)N[C@@H](Cc1c[nH]c2ccccc12)C(=O)N[C@@H](C(=O)N[C@@H](Cc1c[nH]c2ccccc12)C(=O)NCCO)C(C)C)[C@H](C)O)[C@H](C)O)C(C)C)C(C)C [compound 5747] (For-VGA[dL]A[dV]V[dT]W[dT]W[dL]W[dV]W-NHCH2CH2OH) : -
2. CC(C)C[C@@H](NC(=O)[C@H](C)NC(=O)[C@H](NC(=O)[C@H](C)NC(=O)CNC(=O)[C@@H](NC=O)C(C)C)[C@H](C)O)C(=O)N[C@H](C(=O)N[C@H](CC(C)C)C(=O)N[C@@H](Cc1c[nH]c2ccccc12)C(=O)N[C@@H](C(=O)N[C@@H](Cc1c[nH]c2ccccc12)C(=O)N[C@H](CC(C)C)C(=O)N[C@@H](Cc1c[nH]c2ccccc12)C(=O)N[C@@H](C(=O)N[C@@H](Cc1c[nH]c2ccccc12)C(=O)NCCO)C(C)C)[C@H](C)O)C(C)C [compound 3437] (For-VGA[dT]A[dL]V[dL]W[dT]W[dL]W[dV]W-NHCH2CH2OH) : -

* * *

# Tested on: P388 mouse leukemia cells
# experimentalContext: 92 h
Where a SMILES comes first, the peptide text is derived from it. [ ]: non-standard residue; d: D form. The star is where a group is joined. NHCH2CH2OH = OCCN*; For = O=C*
Lab note: anything with cell viability/% below 70% is marked Yes; values at 70% or higher are marked No.

Worked examples, 4 compounds total:
1) CC(C)C[C@@H](NC(=O)[C@H](C)NC(=O)[C@H](NC(=O)[C@H](C)NC(=O)CNC(=O)[C@@H](NC=O)C(C)C)C(C)C)C(=O)N[C@H](C(=O)N[C@@H](C(=O)N[C@@H](Cc1c[nH]c2ccccc12)C(=O)N[C@@H](C(=O)N[C@@H](Cc1c[nH]c2ccccc12)C(=O)N[C@@H](C(=O)N[C@@H](Cc1c[nH]c2ccccc12)C(=O)N[C@@H](C(=O)N[C@@H](Cc1c[nH]c2ccccc12)C(=O)NCCO)C(C)C)C(C)C)C(C)C)C(C)C)C(C)C [compound 13030] (For-VGA[dV]A[dL]V[dV]W[dV]W[dV]W[dV]W-NHCH2CH2OH) : No
2) CNC(=O)C[C@@H](NC(=O)[C@@H](NC(=O)[C@H](NC(=O)[C@H](C)NC(=O)[C@H](NC(=O)[C@H](C)NC(=O)CNC(=O)[C@@H](NC=O)C(C)C)C(C)C)C(C)C)C(C)C)C(=O)N[C@@H](Cc1c[nH]c2ccccc12)C(=O)N[C@H](CC(C)C)C(=O)N[C@@H](Cc1c[nH]c2ccccc12)C(=O)N[C@H](CC(C)C)C(=O)N[C@@H](Cc1c[nH]c2ccccc12)C(=O)N[C@H](CC(C)C)C(=O)N[C@@H](Cc1c[nH]c2ccccc12)C(=O)NCCO [compound 2218] (For-VGA[dV]A[dV]V[dD](NHMe)W[dL]W[dL]W[dL]W-NHCH2CH2OH) : No
3) CC(C)C[C@@H](NC(=O)[C@H](C)NC(=O)[C@H](NC(=O)[C@H](C)NC(=O)CNC(=O)[C@@H](NC=O)C(C)C)C(C)C)C(=O)N[C@H](C(=O)N[C@@H](C(=O)N[C@@H](Cc1c[nH]c2ccccc12)C(=O)N[C@@H](C(=O)N[C@@H](Cc1c[nH]c2ccccc12)C(=O)N[C@@H](C(=O)N[C@@H](Cc1c[nH]c2ccccc12)C(=O)N[C@H](CC(C)C)C(=O)N[C@@H](Cc1c[nH]c2ccccc12)C(=O)NCCO)C(C)C)C(C)C)[C@H](C)O)C(C)C [compound 4395] (For-VGA[dV]A[dL]V[dT]W[dV]W[dV]W[dL]W-NHCH2CH2OH) : No
4) CC(C)C[C@@H](NC(=O)[C@H](Cc1c[nH]c2ccccc12)NC(=O)[C@H](NC(=O)[C@H](Cc1c[nH]c2ccccc12)NC(=O)[C@H](NC(=O)[C@H](Cc1c[nH]c2ccccc12)NC(=O)[C@@H](CC(C)C)NC(=O)[C@@H](NC(=O)[C@H](NC(=O)[C@H](C)NC(=O)[C@H](NC(=O)[C@H](C)NC(=O)CNC(=O)[C@@H](NC=O)C(C)C)C(C)C)C(C)C)C(C)C)C(C)C)[C@H](C)O)C(=O)N[C@@H](Cc1c[nH]c2ccccc12)C(=O)NCCO [compound 8633] (For-VGA[dV]A[dV]V[dL]W[dV]W[dT]W[dL]W-NHCH2CH2OH) : Yes

Lab note: cell viability/% threshold 70%. Does this compound come in strictly under it? CC(C)C[C@@H](NC(=O)[C@H](C)NC(=O)CNC(=O)[C@@H](NC=O)C(C)C)C(=O)N[C@@H](C)C(=O)N[C@H](CC(C)C)C(=O)N[C@H](C(=O)N[C@H](CC(C)C)C(=O)N[C@@H](Cc1c[nH]c2ccccc12)C(=O)N[C@H](CC(C)C)C(=O)N[C@@H](Cc1c[nH]c2ccccc12)C(=O)N[C@H](CC(C)C)C(=O)N[C@@H](Cc1c[nH]c2ccccc12)C(=O)N[C@@H](C(=O)N[C@@H](Cc1c[nH]c2ccccc12)C(=O)NCCO)C(C)C)C(C)C [compound 10340] (For-VGA[dL]A[dL]V[dL]W[dL]W[dL]W[dV]W-NHCH2CH2OH)
Yes

Now the compound CC(C)C[C@@H](NC(=O)[C@H](C)NC(=O)CNC(=O)[C@@H](NC=O)C(C)C)C(=O)N[C@@H](C)C(=O)N[C@H](CC(C)C)C(=O)N[C@H](C(=O)N[C@H](CC(C)C)C(=O)N[C@@H](Cc1c[nH]c2ccccc12)C(=O)N[C@H](CC(C)C)C(=O)N[C@@H](Cc1c[nH]c2ccccc12)C(=O)N[C@H](CC(C)C)C(=O)N[C@@H](Cc1c[nH]c2ccccc12)C(=O)N[C@@H](C(=O)N[C@@H](Cc1c[nH]c2ccccc12)C(=O)NCCO)C(C)C)C(C)C [compound 6639] (For-VGA[dL]A[dL]V[dL]W[dL]W[dL]W[dV]W-NHCH2CH2OH)
Yes

Now the compound CNC(=O)C[C@@H](NC(=O)[C@@H](NC(=O)[C@H](NC(=O)[C@H](C)NC(=O)[C@H](NC(=O)[C@H](C)NC(=O)CNC(=O)[C@@H](NC=O)C(C)C)C(C)C)C(C)C)C(C)C)C(=O)N[C@@H](Cc1c[nH]c2ccccc12)C(=O)N[C@H](CC(C)C)C(=O)N[C@@H](Cc1c[nH]c2ccccc12)C(=O)N[C@H](CC(C)C)C(=O)N[C@@H](Cc1c[nH]c2ccccc12)C(=O)N[C@@H](C(=O)N[C@@H](Cc1c[nH]c2ccccc12)C(=O)NCCO)C(C)C [compound 12373] (For-VGA[dV]A[dV]V[dD](NHMe)W[dL]W[dL]W[dV]W-NHCH2CH2OH)
No

* * *

# System: Streptococcus pyogenes SSI-9
# experimentalContext: S. pyogenes
Where a SMILES comes first, the peptide text is derived from it. [ ]: non-standard residue; d: D form. The star is where a group is joined. NHCH2CH2OH = OCCN*; For = O=C*
assayEndpoint: antibacterial activity/MIC (µg/mL)
I only need the number, in µg/mL, no unit after it.

1) CC(C)C[C@@H](NC(=O)[C@H](C)NC(=O)[C@H](NC(=O)[C@H](C)NC(=O)CNC(=O)[C@@H](NC=O)C(C)C)[C@H](C)O)C(=O)N[C@H](C(=O)N[C@H](CC(C)C)C(=O)N[C@@H](Cc1c[nH]c2ccccc12)C(=O)N[C@@H](C(=O)N[C@@H](Cc1c[nH]c2ccccc12)C(=O)N[C@H](CC(C)C)C(=O)N[C@@H](Cc1c[nH]c2ccccc12)C(=O)N[C@@H](C(=O)N[C@@H](Cc1c[nH]c2ccccc12)C(=O)NCCO)C(C)C)[C@H](C)O)C(C)C [B21] (For-VGA[dT]A[dL]V[dL]W[dT]W[dL]W[dV]W-NHCH2CH2OH) : 32

Here is the next item to consider.
Provide value of antibacterial activity/MIC for this record tested with Streptococcus pyogenes SSI-9: CC(C)C[C@@H](NC(=O)[C@H](C)NC(=O)CNC(=O)[C@@H](NC=O)C(C)C)C(=O)N[C@@H](C)C(=O)N[C@@H](C(=O)N[C@H](C(=O)N[C@@H](C(=O)N[C@@H](Cc1c[nH]c2ccccc12)C(=O)N[C@@H](C(=O)N[C@@H](Cc1c[nH]c2ccccc12)C(=O)N[C@H](CC(C)C)C(=O)N[C@@H](Cc1c[nH]c2ccccc12)C(=O)N[C@@H](C(=O)N[C@@H](Cc1c[nH]c2ccccc12)C(=O)NCCO)C(C)C)C(C)C)C(C)C)C(C)C)C(C)C [B04] (For-VGA[dL]A[dV]V[dV]W[dV]W[dL]W[dV]W-NHCH2CH2OH)
0.063

Cited source: paper PMC7531004
